Values were extracted from ChEMBL document CHEMBL4428061.

- PROTOCOL_NOTES: Acute toxicity in iv dosed rat
- Format: organism-based
- CONDITION_DETAILS: in vivo
READOUT: LD50

For NC[C@H]1O[C@H](O[C@H]2[C@H](O)[C@@H](O)[C@H](N)C[C@@H]2N)[C@H](N)[C@@H](O)[C@@H]1O , write its LD50.
121 to 129 mg/kg

* * *

- System: cytosolic eukaryotic translation versus 16S rRNA A-site
- PROTOCOL_NOTES: Selectivity ratio, ratio of IC50 for cytosolic eukaryotic translation in rabbit reticulocyte S30 extract to IC50 for 16S rRNA A-site in Escherichia coli S30 extract
- Type: toxicity
- CONDITION_DETAILS: read-out: Ratio IC50
READOUT: selectivity ratio
Answers are plain numbers.

Examples from the recorded data:
# MOLECULE, NUMERIC_READOUT
records = [
    ("NC[C@H]1O[C@H](O[C@H]2[C@H](O[C@@H]3O[C@H](CO)[C@@H](O)[C@H]3O)[C@@H](O)[C@H](N)C[C@@H]2N)[C@H](N)C[C@@H]1O", 1230),
    ("NC[C@H]1O[C@H](O[C@H]2[C@H](O[C@@H]3O[C@H](CO)[C@@H](O)[C@H]3O)[C@@H](O[C@H]3O[C@H](CO)[C@@H](O)[C@H](N)[C@H]3O)[C@H](N)C[C@@H]2N)[C@H](N)C[C@@H]1O", 614),
    ("NC[C@H]1O[C@H](O[C@H]2[C@H](O)[C@@H](O[C@H]3O[C@H](CO)[C@@H](O)[C@H](N)[C@H]3O)[C@H](N)C[C@@H]2N)[C@H](N)C[C@@H]1O [TOBRAMYCIN]", 605),
    ("NC[C@H]1O[C@H](O[C@H]2[C@H](O)[C@@H](O[C@H]3O[C@H](CO)[C@@H](O)[C@H](N)[C@H]3O)[C@H](N)C[C@@H]2N)[C@H](O)[C@@H](O)[C@@H]1O [KANAMYCIN]", 1110),
    ("NC[C@H]1O[C@H](O[C@H]2[C@H](O)[C@@H](O)[C@H](N)C[C@@H]2N)[C@H](N)[C@@H](O)[C@@H]1O [NEAMINE]", 215),
]

Turning to the following molecule.
Quote selectivity ratio reported for NCC[C@H](O)C(=O)N[C@@H]1C[C@H](N)[C@@H](O[C@H]2O[C@H](CN)[C@@H](O)[C@H](O)[C@H]2O)[C@H](O)[C@H]1O[C@H]1O[C@H](CO)[C@@H](O)[C@H](N)[C@H]1O [AMIKACIN] please.
923
